# run-conditions: 303.2 K, wilhelmy plate
Give surface tension liquid-gas for every item shown.
Enter your answer as a number in mN/m; do not include the unit.

Field surface tension liquid-gas (entry OCCNCCO ) reads 46

Field surface tension liquid-gas (entry CO ) reads 21.7

Field surface tension liquid-gas (entry NCCO ) reads 47.7

Field surface tension liquid-gas (entry O ) reads 71.1

* * *

# run-conditions: 313.2 K; 101.33 kPa; Liquid; Concentric cylinders viscometry
Numbers after ± are expanded uncertainties.
quantity: viscosity
Report as: number unit

Field viscosity (entry OCCNCCO [diethanolamine] ) reads 188.64 ± 6.6 mPa·s

Field viscosity (entry CO [methanol] ) reads 0.44 ± 0.12 mPa·s

Field viscosity (entry NCCO [2-aminoethan-1-ol] ) reads 9.87 ± 0.15 mPa·s

Field viscosity (entry O [water] ) reads 0.65 ± 0.12 mPa·s
